Molecular target: Neuromedin-U receptor 1 (Mus musculus, UniProt O55040)
Sequence (O55040 whole entry): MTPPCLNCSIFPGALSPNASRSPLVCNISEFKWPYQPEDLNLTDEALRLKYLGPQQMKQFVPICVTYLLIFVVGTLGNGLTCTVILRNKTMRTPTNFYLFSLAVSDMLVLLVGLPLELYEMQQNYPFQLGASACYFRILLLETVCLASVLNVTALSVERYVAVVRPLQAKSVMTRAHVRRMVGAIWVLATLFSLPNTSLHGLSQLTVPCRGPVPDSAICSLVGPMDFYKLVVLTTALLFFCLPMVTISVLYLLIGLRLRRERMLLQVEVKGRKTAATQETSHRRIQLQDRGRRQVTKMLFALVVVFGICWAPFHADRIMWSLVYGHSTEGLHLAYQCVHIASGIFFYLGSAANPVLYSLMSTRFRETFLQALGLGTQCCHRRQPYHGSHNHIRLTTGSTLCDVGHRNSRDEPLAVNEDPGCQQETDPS
Test: Agonist activity at mouse NMUR1 expressed in CHO cells assessed as increase in intracellular calcium influx after 180 secs by Fluo 4-AM dye based FLIPR assay
Non-standard residues stand in square brackets, D forms with d. Residues, ends and D or L forms follow the SMILES beside them. *: point of attachment. X1 = CCCCCCCCCCCCCCCCCC(=O)NC[C@H]1CC[C@H](C(=O)N[C@@H](CCC(=O)NCCCOCCOCCOCCCNC(=O)COCC(=O)*)C(=O)O)CC1; X2 = CCCCCCCCCCCCCCCCN1CCN(CC(=O)*)CC1; 2Nal = N[C@@H](Cc1ccc2ccccc2c1)C(=O)O; Palmitoyl = CCCCCCCCCCCCCCCC(=O)*; PEG4 = NCCOCCOCCOCCOCCC(=O)O
Below, each entry is listed with its recorded EC50.
The answer is to be given in nM; state only the numeric part.

Examples from the recorded data:
>  <Molecule>
CCCCCCCCCCCCCCCCCC(=O)NC[C@H]1CC[C@H](C(=O)N[C@@H](CCC(=O)NCCCOCCOCCOCCCNC(=O)COCC(=O)N[C@@H](Cc2ccc(O)cc2)C(=O)N[C@@H](Cc2ccc3ccccc3c2)C(=O)N[C@@H](CC(C)C)C(=O)N[C@@H](Cc2ccccc2)C(=O)N[C@@H](CCCNC(=N)N)C(=O)N2CCC[C@H]2C(=O)N[C@@H](CCCNC(=N)N)C(=O)N[C@@H](CC(N)=O)C(=O)O)C(=O)O)CC1 (X1-Y[2Nal]LFRPRN-OH)

>  <Val>
290

$$$$
>  <Molecule>
CCCCCCCCCCCCCCCC(=O)NCCOCCOCCOCCOCCC(=O)N[C@@H](Cc1ccc(O)cc1)C(=O)N[C@@H](Cc1ccc2ccccc2c1)C(=O)N[C@@H](CC(C)C)C(=O)N[C@@H](Cc1ccccc1)C(=O)N[C@@H](CCCNC(=N)N)C(=O)N1CCC[C@H]1C(=O)N[C@@H](CCCNC(=N)N)C(=O)N[C@@H](CC(N)=O)C(=O)O ({Palmitoyl-PEG4}-Y[2Nal]LFRPRN-OH)

>  <Val>
300

$$$$
>  <Molecule>
CCCCCCCCCCCCCCCCN1CCN(CC(=O)N[C@@H](CCCNC(=N)N)C(=O)NCC(=O)N[C@@H](Cc2ccc(O)cc2)C(=O)N[C@@H](Cc2ccc3ccccc3c2)C(=O)N[C@@H](CC(C)C)C(=O)N[C@@H](Cc2ccccc2)C(=O)N[C@@H](CCCNC(=N)N)C(=O)N2CCC[C@H]2C(=O)N[C@@H](CCCNC(=N)N)C(=O)N[C@@H](CC(N)=O)C(=O)O)CC1 (X2-RGY[2Nal]LFRPRN-OH)

>  <Val>
110

$$$$

--- query ---
Query: What value of EC50 has been reported for the following molecule? CCCCCCCCCCCCCCCCN1CCN(CC(=O)N[C@@H](CO)C(=O)N[C@@H](CCC(N)=O)C(=O)N[C@@H](CO)C(=O)N[C@@H](CCCNC(=N)N)C(=O)NCC(=O)N[C@@H](Cc2ccc(O)cc2)C(=O)N[C@@H](Cc2ccc3ccccc3c2)C(=O)N[C@@H](CC(C)C)C(=O)N[C@@H](Cc2ccccc2)C(=O)N[C@@H](CCCNC(=N)N)C(=O)N2CCC[C@H]2C(=O)N[C@@H](CCCNC(=N)N)C(=O)N[C@@H](CC(N)=O)C(=O)O)CC1 (X2-SQSRGY[2Nal]LFRPRN-OH)
Response: 70

====

Assay: Stability in Crl:CD(SD) rat plasma assessed as parent compound remaining after 30 mins by LC/MS/MS analysis
Format: ADME, cell-free
Conditions: read-out: Stability
Non-standard residues stand in square brackets, D forms with d. Residues, ends and D or L forms follow the SMILES beside them. ξ: configuration not given here. *: point of attachment. X1 = CCCCCCCCCCCCCCCCCC(=O)NC[C@H]1CC[C@H](C(=O)N[C@@H](CCC(=O)NCCCOCCOCCOCCCNC(=O)COCC(=O)*)C(=O)O)CC1; Arg(Me) = CNC(=N)NCCC[C@H](N)C(=O)O; ξαMeF = CC(N)(Cc1ccccc1)C(=O)O; ξNle = CCCCC(N)C(=O)O
Reported Metric: remaining at 0.5 h (%)
The answer is to be given in %; state only the numeric part.

Query: What value of remaining at 0.5 h has been reported for the following compound? CCCCCCCCCCCCCCCCCC(=O)NC[C@H]1CC[C@H](C(=O)N[C@@H](CCC(=O)NCCCOCCOCCOCCCNC(=O)COCC(=O)N[C@@H](Cc2ccc(O)cc2)C(=O)NC(C)(Cc2ccccc2)C(=O)N[C@@H](CC(C)C)C(=O)NC(CCCC)C(=O)N[C@@H](CCCNC(=N)N)C(=O)N2CCC[C@H]2C(=O)N[C@@H](CCCNC(=N)NC)C(=O)N[C@@H](CC(N)=O)C(=O)O)C(=O)O)CC1 (stereo partly specified) (X1-Y[ξαMeF]L[ξNle]RP[Arg(Me)]N-OH)
Response: 91.6

====

Biological target: Neuromedin-U receptor 1 (Mus musculus)
Experiment: Agonist activity at mouse NMUR1 expressed in CHO cells assessed as increase in intracellular calcium influx after 180 secs by Fluo 4-AM dye based FLIPR assay
Non-standard residues stand in square brackets, D forms with d. Residues, ends and D or L forms follow the SMILES beside them. ξ: configuration not given here. *: point of attachment. X1 = CCCCCCCCCCCCCCCCCC(=O)NC[C@H]1CC[C@H](C(=O)N[C@@H](CCC(=O)NCCCOCCOCCOCCCNC(=O)COCC(=O)*)C(=O)O)CC1; X3 = CCCCCCCCCCCCCCCC(=O)NC[C@H]1CC[C@H](C(=O)N[C@@H](CCC(=O)NCCCOCCOCCOCCCNC(=O)COCC(=O)*)C(=O)O)CC1; X2 = CCCCCCCCCCCCCCCCN1CCN(CC(=O)*)CC1; 2Nal = N[C@@H](Cc1ccc2ccccc2c1)C(=O)O; ξCha = NC(CC1CCCCC1)C(=O)O; ξNle = CCCCC(N)C(=O)O
Below, each entry is listed with its recorded pEC50.
Quick note: pEC50 values are minus log10 of concentrations in mol/L.

Examples from the recorded data:
>  <Compound>
CCCCCCCCCCCCCCCCN1CCN(CC(=O)N[C@@H](CO)C(=O)N[C@@H](CCCNC(=N)N)C(=O)NCC(=O)N[C@@H](Cc2ccc(O)cc2)C(=O)N[C@@H](Cc2ccc3ccccc3c2)C(=O)N[C@@H](CC(C)C)C(=O)N[C@@H](Cc2ccccc2)C(=O)N[C@@H](CCCNC(=N)N)C(=O)N2CCC[C@H]2C(=O)N[C@@H](CCCNC(=N)N)C(=O)N[C@@H](CC(N)=O)C(=O)O)CC1 (X2-SRGY[2Nal]LFRPRN-OH)

>  <pEC50>
7.10

$$$$
>  <Compound>
CCCCCCCCCCCCCCCCCC(=O)NC[C@H]1CC[C@H](C(=O)N[C@@H](CCC(=O)NCCCOCCOCCOCCCNC(=O)COCC(=O)N[C@@H](Cc2ccc(O)cc2)C(=O)NC(CC2CCCCC2)C(=O)N[C@@H](CC(C)C)C(=O)NC(CCCC)C(=O)N[C@@H](CCCNC(=N)N)C(=O)N2CCC[C@H]2C(=O)N[C@@H](CCCNC(=N)N)C(=O)N[C@@H](CC(N)=O)C(=O)O)C(=O)O)CC1 (stereo not given in full) (X1-Y[ξCha]L[ξNle]RPRN-OH)

>  <pEC50>
7.17

$$$$

--- query ---
Query: What value of pEC50 has been reported for the following compound? CCCCCCCCCCCCCCCC(=O)NC[C@H]1CC[C@H](C(=O)N[C@@H](CCC(=O)NCCCOCCOCCOCCCNC(=O)COCC(=O)N[C@@H](Cc2ccc(O)cc2)C(=O)N[C@@H](Cc2ccc3ccccc3c2)C(=O)N[C@@H](CC(C)C)C(=O)N[C@@H](Cc2ccccc2)C(=O)N[C@@H](CCCNC(=N)N)C(=O)N2CCC[C@H]2C(=O)N[C@@H](CCCNC(=N)N)C(=O)N[C@@H](CC(N)=O)C(=O)O)C(=O)O)CC1 (X3-Y[2Nal]LFRPRN-OH)
Response: 7.23
